target: Metabotropic glutamate receptor 1 (Homo sapiens); assay: Allosteric activity at mGlu1 (unknown origin)
Sequence (Q13255 whole entry): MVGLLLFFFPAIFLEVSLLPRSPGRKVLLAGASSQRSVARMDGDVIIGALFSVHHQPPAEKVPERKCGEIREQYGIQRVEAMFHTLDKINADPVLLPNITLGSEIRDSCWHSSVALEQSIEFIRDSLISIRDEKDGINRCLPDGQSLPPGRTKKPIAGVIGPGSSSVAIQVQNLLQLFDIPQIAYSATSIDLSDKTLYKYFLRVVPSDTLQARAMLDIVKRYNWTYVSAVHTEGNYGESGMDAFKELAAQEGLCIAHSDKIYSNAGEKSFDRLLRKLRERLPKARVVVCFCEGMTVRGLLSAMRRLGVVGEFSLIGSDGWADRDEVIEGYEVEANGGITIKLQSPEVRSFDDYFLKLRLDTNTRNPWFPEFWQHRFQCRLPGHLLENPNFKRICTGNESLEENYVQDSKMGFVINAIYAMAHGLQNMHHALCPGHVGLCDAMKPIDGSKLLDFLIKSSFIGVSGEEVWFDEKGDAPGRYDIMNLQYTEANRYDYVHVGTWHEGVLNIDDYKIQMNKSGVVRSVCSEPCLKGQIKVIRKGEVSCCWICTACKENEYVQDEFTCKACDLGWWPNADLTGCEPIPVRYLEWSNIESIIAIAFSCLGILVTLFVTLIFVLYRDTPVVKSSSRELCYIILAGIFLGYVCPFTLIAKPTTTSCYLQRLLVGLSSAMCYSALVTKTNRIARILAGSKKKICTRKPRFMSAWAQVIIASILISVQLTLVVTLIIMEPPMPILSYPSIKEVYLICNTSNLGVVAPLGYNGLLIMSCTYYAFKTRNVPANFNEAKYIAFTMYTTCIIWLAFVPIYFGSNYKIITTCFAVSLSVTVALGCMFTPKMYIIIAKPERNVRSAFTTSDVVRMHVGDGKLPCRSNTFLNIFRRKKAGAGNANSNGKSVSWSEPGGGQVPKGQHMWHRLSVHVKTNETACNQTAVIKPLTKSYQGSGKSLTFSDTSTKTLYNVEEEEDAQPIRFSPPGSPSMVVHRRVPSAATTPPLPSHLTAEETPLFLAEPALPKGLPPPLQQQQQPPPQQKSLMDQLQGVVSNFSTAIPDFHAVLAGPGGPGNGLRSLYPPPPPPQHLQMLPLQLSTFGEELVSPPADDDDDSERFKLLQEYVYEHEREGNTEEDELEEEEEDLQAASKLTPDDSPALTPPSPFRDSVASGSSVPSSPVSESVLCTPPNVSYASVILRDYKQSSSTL
pIC50: −log10 of the molar value.
MEASURED_ENDPOINT: pIC50

Entry `COc1ccc(-c2c(C)nn3c(C(F)(F)F)cc(C)nc23)c(F)c1F` under Metabotropic glutamate receptor 1 (Homo sapiens) had pIC50 of < 5.00

---

target: Metabotropic glutamate receptor 8 (Rattus norvegicus); assay: Agonist activity at rat mGlu8 receptor expressed in HEK cell co-expressing Galpha15 (unknown origin) assessed as […] intracellular Ca2+ mobilization by Fluo-4-AM dye based fluorescence assay
Sequence (P70579 whole entry): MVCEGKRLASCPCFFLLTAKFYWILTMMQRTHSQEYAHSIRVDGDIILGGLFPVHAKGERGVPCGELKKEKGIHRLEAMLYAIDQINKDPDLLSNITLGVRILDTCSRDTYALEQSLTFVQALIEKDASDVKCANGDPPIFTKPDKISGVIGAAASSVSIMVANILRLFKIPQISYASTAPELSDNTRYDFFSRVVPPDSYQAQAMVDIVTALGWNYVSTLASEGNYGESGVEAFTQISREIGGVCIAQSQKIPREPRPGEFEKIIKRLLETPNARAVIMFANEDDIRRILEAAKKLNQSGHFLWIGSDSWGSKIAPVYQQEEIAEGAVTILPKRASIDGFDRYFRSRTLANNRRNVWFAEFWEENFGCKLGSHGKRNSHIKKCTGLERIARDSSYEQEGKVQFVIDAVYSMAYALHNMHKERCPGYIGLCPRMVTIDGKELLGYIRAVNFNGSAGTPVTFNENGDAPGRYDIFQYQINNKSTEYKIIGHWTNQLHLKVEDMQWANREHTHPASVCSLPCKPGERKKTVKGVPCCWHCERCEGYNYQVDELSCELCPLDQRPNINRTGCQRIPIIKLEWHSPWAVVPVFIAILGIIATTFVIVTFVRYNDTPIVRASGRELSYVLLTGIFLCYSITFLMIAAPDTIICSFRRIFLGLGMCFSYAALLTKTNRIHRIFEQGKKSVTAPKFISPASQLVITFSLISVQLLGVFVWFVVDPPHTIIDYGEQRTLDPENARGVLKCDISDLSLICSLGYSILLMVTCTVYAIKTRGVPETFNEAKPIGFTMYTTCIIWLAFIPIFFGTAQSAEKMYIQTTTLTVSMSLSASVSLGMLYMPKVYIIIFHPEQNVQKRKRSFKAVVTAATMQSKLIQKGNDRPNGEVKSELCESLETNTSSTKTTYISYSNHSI
MEASURED_ENDPOINT: pEC50
Answers are plain numbers, as −log10 of the molar value.

Per the records, this compound ( `COC(=O)c1ccc(-n2c(C)cc(C(=O)CSc3ccc(NC(C)=O)cc3)c2C)cc1` ) has pEC50 equal to 6.03

---

experiment: […], Kp in mouse at 10 mg/kg, ip after 1 hr; assay type: ADME, organism-based; details: in vivo
MEASURED_ENDPOINT: Kp at 1 h
Answers are plain numbers.

Per the records, this molecule ( `COc1ccc(-c2c(C)nn3c(C(F)(F)F)cc(C)nc23)c(F)c1F` ) has Kp at 1 h equal to 2.1

---

Exercise: state measured pEC50 for each of the compounds provided.
biological target: Metabotropic glutamate receptor 7 (Homo sapiens); test: Agonist activity at mGlu7 (unknown origin)
One number for each entry, as −log10 of the molar value.

{"COMPOUND": "O=C(NCc1ccccc1F)C1c2ccccc2CC(=O)N1CC1CC1 (configuration not stated)", "READING": 7.53}

Let's switch to this compound now.
Per the records, this compound ( C[C@H](C(=O)NC1COc2ccc(F)cc2C1O)c1ccccc1 (some centres not stated) ) has pEC50 equal to 8.92

---

biological target: Metabotropic glutamate receptor 7 (Homo sapiens); experiment: Agonist activity at human mGlu7
MEASURED_ENDPOINT: EC50 (nM)
One number for each entry, in nM.

Entry C[C@H](C(=O)NC1COc2ccccc2C1S(C)(=O)=O)c1ccc(F)cc1 (stereo partly specified) under Metabotropic glutamate receptor 7 (Homo sapiens) had EC50 of 6.9

---

Exercise: state measured logP for each of the molecules provided.
experiment: Lipophilicity, logP of the compound; format: physicochemical; settings: octanol/water

{"MOLECULE": "CNCC[C@H](NCC(=O)N1CCCc2ccccc21)c1ccccc1", "logP": 3}

Per the records, this molecule ( `c1ccc(C(NCCNC(c2ccccc2)c2ccccc2)c2ccccc2)cc1` ) has logP equal to 5.9

---

molecular target: Metabotropic glutamate receptor 7 (Homo sapiens, UniProt Q14831); test: Allosteric agonist activity at human mGlu7 expressed in CHO cells assessed as reduction in forskolin-induced cAMP production after 30 mins by cAMP reagent-based assay; assay type: functional, cell-based
Sequence (Q14831 whole entry): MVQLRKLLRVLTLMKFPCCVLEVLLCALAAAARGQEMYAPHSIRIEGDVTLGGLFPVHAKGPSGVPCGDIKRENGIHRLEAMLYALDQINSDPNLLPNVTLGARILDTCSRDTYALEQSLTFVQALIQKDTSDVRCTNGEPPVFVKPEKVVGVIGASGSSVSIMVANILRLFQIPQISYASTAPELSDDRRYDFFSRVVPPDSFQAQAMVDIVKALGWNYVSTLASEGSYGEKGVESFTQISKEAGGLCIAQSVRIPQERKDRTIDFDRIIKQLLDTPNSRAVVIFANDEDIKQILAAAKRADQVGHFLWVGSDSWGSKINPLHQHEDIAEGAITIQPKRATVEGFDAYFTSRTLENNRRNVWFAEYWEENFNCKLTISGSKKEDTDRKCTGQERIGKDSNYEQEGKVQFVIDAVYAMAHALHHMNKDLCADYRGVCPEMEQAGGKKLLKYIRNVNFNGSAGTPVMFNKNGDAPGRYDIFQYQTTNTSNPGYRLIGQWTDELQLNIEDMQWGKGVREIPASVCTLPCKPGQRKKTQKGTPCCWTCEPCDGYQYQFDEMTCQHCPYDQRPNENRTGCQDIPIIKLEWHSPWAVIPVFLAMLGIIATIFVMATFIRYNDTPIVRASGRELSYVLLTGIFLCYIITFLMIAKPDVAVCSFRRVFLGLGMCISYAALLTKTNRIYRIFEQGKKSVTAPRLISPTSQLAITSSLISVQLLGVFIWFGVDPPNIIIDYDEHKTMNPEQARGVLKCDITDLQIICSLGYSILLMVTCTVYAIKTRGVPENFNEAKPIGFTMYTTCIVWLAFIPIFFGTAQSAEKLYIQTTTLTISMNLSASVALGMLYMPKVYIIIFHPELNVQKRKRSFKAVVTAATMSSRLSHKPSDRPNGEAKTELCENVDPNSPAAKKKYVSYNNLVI
MEASURED_ENDPOINT: pEC50
Answers are plain numbers, as −log10 of the molar value.

Per the records, this compound ( `c1ccc(C(NCCNC(c2ccccc2)c2ccccc2)c2ccccc2)cc1` ) has pEC50 equal to 6.80

---

target: Metabotropic glutamate receptor 5 (Homo sapiens); assay: Allosteric activity at mGlu5 (unknown origin)
Sequence (P41594 whole entry): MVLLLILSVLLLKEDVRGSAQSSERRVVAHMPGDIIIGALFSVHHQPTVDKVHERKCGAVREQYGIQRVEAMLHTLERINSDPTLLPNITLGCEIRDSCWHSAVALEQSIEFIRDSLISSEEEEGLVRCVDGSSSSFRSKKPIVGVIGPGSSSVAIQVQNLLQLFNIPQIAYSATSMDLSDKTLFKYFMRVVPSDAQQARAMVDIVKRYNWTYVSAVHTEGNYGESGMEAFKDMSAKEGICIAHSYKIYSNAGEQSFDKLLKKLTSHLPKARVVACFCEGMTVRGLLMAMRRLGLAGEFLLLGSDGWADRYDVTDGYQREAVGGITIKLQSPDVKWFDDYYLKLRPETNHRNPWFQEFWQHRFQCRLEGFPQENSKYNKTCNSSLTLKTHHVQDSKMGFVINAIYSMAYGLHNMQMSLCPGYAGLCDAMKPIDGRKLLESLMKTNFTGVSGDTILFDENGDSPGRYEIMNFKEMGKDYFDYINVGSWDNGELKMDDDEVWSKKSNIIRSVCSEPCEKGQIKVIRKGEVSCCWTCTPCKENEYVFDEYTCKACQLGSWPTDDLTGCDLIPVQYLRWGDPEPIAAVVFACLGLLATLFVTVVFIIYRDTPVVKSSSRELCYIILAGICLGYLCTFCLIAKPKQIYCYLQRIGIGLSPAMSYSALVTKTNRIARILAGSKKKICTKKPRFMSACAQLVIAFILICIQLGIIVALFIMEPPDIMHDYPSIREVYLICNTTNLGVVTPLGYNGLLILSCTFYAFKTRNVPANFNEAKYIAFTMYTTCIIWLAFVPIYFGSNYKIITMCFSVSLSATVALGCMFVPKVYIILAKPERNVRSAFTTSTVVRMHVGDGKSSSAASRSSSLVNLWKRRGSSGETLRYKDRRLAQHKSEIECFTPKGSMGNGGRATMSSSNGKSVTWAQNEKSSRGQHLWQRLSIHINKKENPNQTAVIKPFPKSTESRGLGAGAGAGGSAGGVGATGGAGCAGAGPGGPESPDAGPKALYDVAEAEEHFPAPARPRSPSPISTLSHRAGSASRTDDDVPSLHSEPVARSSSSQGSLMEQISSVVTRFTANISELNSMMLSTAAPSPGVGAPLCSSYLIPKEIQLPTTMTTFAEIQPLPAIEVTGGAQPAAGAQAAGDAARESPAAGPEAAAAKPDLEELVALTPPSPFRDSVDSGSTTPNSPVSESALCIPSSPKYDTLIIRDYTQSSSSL
MEASURED_ENDPOINT: IC50

Per the records, this molecule ( `COc1ccc(-c2c(C)nn3c(C(F)(F)F)cc(C)nc23)c(F)c1F` ) has IC50 equal to > 10 µM

// provenance: ChEMBL document CHEMBL4368890
